Entry source: patent US11261183B2

# Test Details: Protein binding in mice plasma using Rapid Equilibrium Dialysis
# Type: in vitro ADME, CD1 mice
# Condition Details: male, CD1, mouse, plasma, pH 7.4, CD1 mouse plasma, 37° C.
Endpoint: fraction unbound at 5 h, 1 µM

Molecule	fraction unbound at 5 h, 1 µM
CCCS(=N)(=O)c1cnc(N2CCN(C(C)c3ccc4c(c3)OCC4)CC2)nc1 (racemic)	0.142

[I] CC(c1ccc2c(c1)OCC2)N1CCN(c2ncc(S(C)(=N)=O)cn2)CC1 (single isomer, unassigned) [Example 12]
[II] CC(c1ccc2scnc2c1)N1CCN(c2ccc(S(C)(=N)=O)cc2)CC1 (racemic)
[III] CC(c1ccc2scnc2c1)N1CCN(c2ncc(N=S(C)(C)=O)cn2)CC1 (racemic)
Hey, quick one: sort these by fraction unbound at 5 h, 1 µM, largest value first please. I would appreciate it if you listed the labels in the requested order. I, III, II
(I: 0.424, III: 0.229, II: 0.132)
